# Tested on: E18 rat cortical neuron-glia co-culture;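 further: MBP fiber length per Olig2+ nucleus over MBP area × intensity per Olig2+ nucleus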
# ASSAY_DETAILS: fiber score / MBP score (myelination specific beyond OL differentiation) (ratio); higher = more myelination-specific MBP alignment
# MEASUREMENT_SETUP: 1 µM; treatment time: 8 days (DIV5-DIV13)
REPORTED_PROPERTY: fiber score / MBP score
One number for each entry.

Some molecules with known fiber score / MBP score results, for comparison:
>  <MOLECULE>
O=C(CCCN1CC=C(n2c(=O)[nH]c3ccccc32)CC1)c1ccc(F)cc1

>  <fiber score / MBP score>
0.863

$$$$
>  <MOLECULE>
CC(C)(C)NCC(O)c1ccc(O)c(CO)c1 (stereo not given)

>  <fiber score / MBP score>
0.654

$$$$
>  <MOLECULE>
NCC(=O)CCC(=O)O

>  <fiber score / MBP score>
1.11

$$$$
>  <MOLECULE>
CN1C(C(=O)Nc2ccccn2)=C(O)c2ccccc2S1(=O)=O

>  <fiber score / MBP score>
0.787

$$$$
>  <MOLECULE>
NS(=O)(=O)Cc1noc2ccccc12 [Zonisamide]

>  <fiber score / MBP score>
0.789

$$$$

I would be grateful if you could provide fiber score / MBP score for each of the following entries.
1. Nc1cc(N2CCCCC2)nc(N)[n+]1[O-]
2. Cn1c(=O)c2nc[nH]c2n(C)c1=O
3. CC(C)NCC(O)COc1cccc2ccccc12 (stereo not given)

Output:
0.696
0.93
1.55

I would be grateful if you could provide fiber score / MBP score for each of the following entries.
1. OCc1cccnc1
2. CC1(C)O[C@@H]2[C@@H](CO[C@@]3(COS(N)(=O)=O)OC(C)(C)O[C@@H]23)O1 [Topiramate]

Output:
[0.641, 0.669]
